Test system: SK-MEL-28 melanoma
experiment: NCI tumour cell line growth inhibition, 48 h
Attribute: TGI

Example entries begin here.
* COc1cc(C2c3cc4c(cc3OC(C)(N3CCCC3)C2C)OCO4)cc(OC)c1OC (stereo not drawn) | > 100 µM
* CCOC(=O)[CH-]C(=O)C12CC3CC(CC(C3)C1)C2.CCOC(=O)[CH-]C(=O)C12CC3CC(CC(C3)C1)C2.CC[O-].CC[O-].[Ti+4] | > 100 µM
* CCN1C(=O)/C(=C/c2c(Cl)[nH]c3cc(C)c(OC)cc23)c2ccccc21 | > 100 µM
* CC(=O)OC1OC([C@H]2c3cccc(O)c3C(=O)c3c(O)cc(C)cc32)C(O)C(O)C1O (stereo partly drawn) | > 23.2 µM
* CC1(c2cccc(C3CC4(CCC3=O)OCCCCO4)c2)OCCO1 (stereo not drawn) | > 100 µM
* COc1ccc2nc3cc(Cl)ccc3c(Sc3ccc([N+](=O)[O-])cc3C)c2c1 | > 100 µM

For this compound ( "C=CC[C@]1(/C=N/O)CN(S(=O)(=O)CC[Si](C)(C)C)C[C@H]2CC=CC[C@H]21" ), measured TGI is 54.7 µM

Per the record, Cc1cccc(Cl)c1NCC(O)CN1CCN(C)CC1 (stereo not drawn) has TGI of > 100 µM

Just so you know, measured TGI for "CC(=O)Oc1c(C)c(-c2ccccc2)c(C)c(-c2ccccc2)c1C(=S)c1ccccc1" came out at > 100 µM

The compound "COC(=O)c1ccc2[nH]c(O)c(C(=Nc3ccc(N(C)C(=O)CN4CCN(C)CC4)cc3)c3ccc4c(c3)OCO4)c2c1" showed TGI equal to 2.92 µM

// "COc1cc(Nc2ncccc2C(=O)Nc2nc3ccc(F)cc3s2)cc(OC)c1OC" : TGI value = > 100 µM

Measured TGI of CCCCCCCC(CC(=O)NC(CO)C(=O)NC(CO)CC(C)C)OC(=O)CC(CCCCCCC)OC(=O)CC(CCCCCCC)OC1OC(C)C(O)C(OC2OC(C)C(OC(C)=O)C(O)C2O)C1O (stereo not drawn) : 19.4 µM

Lookup result for "C=CCCON(C(=O)OC(C)(C)C)c1ccccc1" ; measured TGI: > 100 µM

Where do these numbers come from? They come from PubChem BioAssay (NCI).
